- Tested on: U-251
- assay.procedure: NCI tumour cell line growth inhibition, 48 h
The source made the active and inactive calls. Rule as the data show it: active = GI50 up to about 1.1 µM and inactive = higher.
Hi there, use one of these labels in your reply, thanks! Yes = active, No = inactive

Prompt line: Fill in: this test's call for CCC1=CC2Cc3nc4cc(Cl)ccc4c(N)c3C(C1)C2 (stereo not given) is ___
Response line: No

Prompt line: Entry to check: C=C(C)CNCCN
Response line: No

Prompt line: Thanks! And O=C1c2ccccc2C(=O)c2c(O)ccc(O)c21 [QUINIZARIN] ?
Response line: No

Prompt line: Could you do the same for CC1=C(C)CC(C#N)(C#N)C(C#N)(C#N)C1 , please?
Response line: No

Prompt line: // same read-out, input: CC(=O)NCCc1c(-c2[nH]c3ccccc3c2CCNC(C)=O)[nH]c2ccccc12
Response line: No

Prompt line: Now consider CC[C@@]1(O)C(=O)OCc2c1cc1n(c2=O)Cc2c-1nc1ccccc1c2/C=N\NC(=O)C(N)CCSC (stereo not given in full) and answer again.
Response line: Yes

Prompt line: Okay, and COC[C@@H]1Cc2cc(OC)c3c(c2[C@H](c2ccc(OC)c(OC)c2)[C@H]1COC)OCO3 [HYPOPHYLLANTHIN] ?
Response line: No

Prompt line: Now this one: CC(C)N(C(=O)C12C3C4C1C1C4(C#N)C3C12C#N)C(C)C (stereo not given)
Response line: No

Prompt line: Next up: CON(C)C(=O)CCCO
Response line: No

Prompt line: What about Cc1ccc(S(=O)(=O)NC(=O)NC(CCCCN)C(=O)O)cc1 (stereo not given) ?
Response line: No

Prompt line: Then CN(C)CCOc1ccc2[nH]c(C(=O)N3CC(CCl)c4c3cc([N+](=O)[O-])c3ccccc43)cc2c1 (stereo not given) ?
Response line: No

Prompt line: Then COC(OC)c1cccnc1C ?
Response line: No

Prompt line: Now this one: Cc1cc(C)c2cc(N)c(Cl)nc2n1
Response line: No

Prompt line: Same lookup for O=Cc1c(O)ccc2ccc(O)c(-c3c(O)ccc4ccc(O)cc34)c12 , please.
Response line: No

Prompt line: CCNC1=Nc2ccccc2-n2c(nn3nc4ccccc4c23)N1CC ?
Response line: No

Prompt line: Would you kindly repeat that for CCOP(=O)(C[S+](C)[O-])O[C@@H]1C[C@H](C)CC[C@H]1C(C)C (stereo not given in full) ?
Response line: No

Prompt line: Also, CC(=O)O[C@H]1CCn2c3c(c(C)c21)C(=O)C(N1CC1)=C(C)C3=O please.
Response line: No

Prompt line: Would you mind doing C[C@H](CCC1=NCCN1)[C@H]1CC[C@H]2[C@@H]3[C@H](O)C[C@@H]4C[C@H](O)CC[C@]4(C)[C@H]3CC[C@]12C as well?
Response line: No

Prompt line: Item: CC(=O)Nc1ccc2c3c(cc(O)c2c1)N(C(=O)CCCC(=O)N1CC(CCl)c2c1cc(O)c1cc(NC(C)=O)ccc21)CC3CCl (stereo not given)
Response line: Yes

Prompt line: Also C[C@@H]1CC2(C[C@@H](C)C3[C@@H](CC4(C)CCCC5C6=CC(O)(CC[C@]34C)OC6=CC(=O)OC5(C)C)O2)OC1=O (stereo not given in full) , if possible.
Response line: No

###

- Test system: HCT-116
- assay.procedure: NCI tumour cell line growth inhibition, 48 h
The source made the active and inactive calls. No stated cut-off is given here; in the data, active = GI50 up to about 1.1 µM and inactive = higher.
One label from this list, please: active, inactive

Prompt line: Query: recorded result category for Nc1nc2c(ncn2CC2CCC(CO)C2)c(=O)[nH]1 (stereo not given) in this test
Response line: inactive

Prompt line: Cool, now Cc1cn2c(/C=N/NC(=N)N)c(-c3ccc([N+](=O)[O-])cc3)nc2s1
Response line: active

Prompt line: Try COC1=C(OC)C(=O)c2cc(C)c(=O)c(C)cc2C1=O next.
Response line: inactive

Prompt line: Another compound: O=C(c1ccccc1)c1ccc2cccc(OC3OC(CO)C(O)C(O)C3O)c2n1 (stereo not given)
Response line: inactive

Prompt line: Same lookup for O=C1N/C(=N\C2CCCCC2)C2(CCN(CCCC3(c4ccc(F)cc4)OCCO3)CC2)N1c1ccccc1 , please.
Response line: inactive

Origin of the recorded values: ChEMBL document CHEMBL1201862
